Where do these numbers come from? They come from paper PMC7126545.

- experimental-details: in vitro
- assay-context: mouse (L1210), human (CEM, HeLa)
pIC50: −log10 of the molar value.
parameter-measured: pIC50

**Q:** What measured pIC50 goes with C#C[C@@]1(O)[C@@H](CO)O[C@@H](n2cnc3c(NCc4cccc(Cl)c4)nc(Cl)nc32)[C@@H]1O [Compound 10] ?
**A:** 4.30 to 4.66

* * *

- experimental-details: in vitro
parameter-measured: CC50 (µM)
Kindly provide the numeric value in µM only, without the unit symbol.

**Q:** What measured CC50 goes with C#C[C@@]1(O)[C@@H](CO)O[C@@H](n2cnc3c(NCc4cccc(Cl)c4)nc(Cl)nc32)[C@@H]1O ?
**A:** 34.5
